# subject of test: B2 bradykinin receptor (Cavia porcellus)
# assay text: Inhibition of BK-induced bronchoconstriction in Dunkin Hartley guinea pig at 100 nmol/kg, it
# Assay type: functional
# Design: scale not given: the % may be the effect or the level left
quantity measured: Activity (%)
Answers are plain numbers, in %.

Example results:
[[record]]
molecule = "Cc1cc(C)c2cccc(OCc3c(Cl)ccc(S(=O)(=O)NC4(C(=O)N5CCN(C(=O)[C@@H](N)CCC[N+](C)(C)C)CC5)CCCC4)c3Cl)c2n1"
quantity_measured = "Activity"
recorded_measurement = 24

[[record]]
molecule = "Cc1cc(C)c2cccc(OCc3c(Cl)ccc(S(=O)(=O)NC4(C(=O)N5CCN(C(=O)C[C@@H](N)CCCN)CC5)CCCC4)c3Cl)c2n1"
quantity_measured = "Activity"
recorded_measurement = 46

[[record]]
molecule = "Cc1cc(C)c2cccc(OCc3c(Cl)ccc(S(=O)(=O)NC4(C(=O)N5CCN(C(=O)C[C@@H](N)CCCNC(=N)N)CC5)CCCC4)c3Cl)c2n1"
quantity_measured = "Activity"
recorded_measurement = 78


// each molecule listed below needs its Activity
1. Cc1cc(C)c2cccc(OCc3c(Cl)ccc(S(=O)(=O)NC4(C(=O)N5CCN(C(=O)[C@@H](N)CC[N+](C)(C)C)CC5)CCCC4)c3Cl)c2n1
2. Cc1cc(C)c2cccc(OCc3c(Cl)ccc(S(=O)(=O)NC4(C(=O)N5CCN(C(=O)C[C@@H](N)CCC[N+](C)(C)C)CC5)CCCC4)c3Cl)c2n1
3. Cc1cc(C)c2cccc(OCc3c(Cl)ccc(S(=O)(=O)NC4(C(=O)N5CCN(C(=O)C[N+](C)(C)C)CC5)CCCC4)c3Cl)c2n1
4. Cc1cc(C)c2cccc(OCc3c(Cl)ccc(S(=O)(=O)NC4(C(=O)N5CCN(C(=O)[C@@H](N)CCC[N+](C)(C)C)CC5)CCN(C)CC4)c3Cl)c2n1

Response:
45
57
54
40
